Compiled notes: published IC50 values involving Beta-secretase 2 (Homo sapiens, UniProt Q9Y5Z0).
recordedMetric: IC50 (nM)

The examples below pair each entry with its known result.
[Q] Identify IC50 associated with the compound CN1C(=O)C(C)(C)[C@@](C)(c2cc(NC(=O)c3ccccn3)ccc2F)N=C1N
[A] 43

[Q] Fill in IC50 for record C[C@H]1C(=O)N(C)C(N)=N[C@]1(C)c1cccc(NC(=O)c2ccc(Cl)cn2)c1
[A] 17

[Q] Give me measured IC50, please, for this compound: CC[C@@]1(c2cccc(NC(=O)c3ccc(Cl)cn3)c2)CC(=O)N(C)C(N)=N1
[A] 11

[Q] Read off the recorded IC50 for CN1C(=O)C[C@@](C)(c2cccc(NC(=O)c3ccn(CC(F)(F)F)n3)c2)N=C1N
[A] 2070

[1] CC[C@@]1(c2cc(NC(=O)c3cc4ccccc4s3)ccc2F)CCSC(N)=N1
[2] CC[C@@]1(c2cc(NC(=O)c3nc(Cl)ccc3Cl)ccc2F)CCSC(N)=N1
[3] CC#CCOc1cnc2c(Nc3ccc(F)c([C@@]4(C)N=C(N)[C@]5(C)CC[C@H]4S5(=O)=O)c3)nccc2n1
[4] CC[C@@]1(c2cc(NC(=O)c3cc4ccccc4cn3)ccc2F)CCSC(N)=N1
[Q] Give the ascending ranking of the items by reported IC50. Output the labels ranked as instructed.
[A] 3, 1, 4, 2
